assay: Oral bioavailability in mouse at 50 mg/kg; assay type: ADME, organism-based; conditions: in vivo
Readout Name: bioavailability (%)
Write it as a number; the unit % goes unstated.

Given the molecule `Cc1cc(OCc2ccc(CN3CCC[C@@H]3CO)cc2)cc(CS(=O)(=O)c2ccccc2)c1Br` , what is its reported bioavailability?
2.38

* * *

test: Cmax in mouse at 20 mg/kg, po; format: ADME, organism-based; set-up: dose 20 mg/kg, route po; details: in vivo
In this section we review reported Cmax values for a set of compounds.
Your answer should be a number followed by the unit of measure.

>  <Compound Smiles>
Cc1cc(CS(=O)(=O)C2CC2)cc(OCc2ccc(CN3CCC[C@@H]3CO)cc2)c1

>  <Cmax>
83.6 ng/mL

$$$$

Given the compound `Cc1cc(CS(=O)(=O)c2ccccc2)cc(OCc2ccc(CN3CCC[C@@H]3CO)cc2)c1` , what is its reported Cmax?
16.8 ng/mL
